# Tested on: HCT-15
# protocol: NCI tumour cell line growth inhibition, 48 h
measured property: GI50

compound="O=c1c2ccccc2nc2n1C(c1ccc([N+](=O)[O-])cc1)C2(c1ccccc1)c1ccccc1 (stereo not given)" reading="> 100 µM"
compound="CN1CC(=O)N2Cc3ccccc3-n3cccc3C2C1 (stereo not given)" reading="> 100 µM"
compound=CN(N=O)c1nc2c(C(N)=O)ncn2s1 reading="> 100 µM"
compound=O=[N+]([O-])C(C(Cl)=C(Cl)Cl)=C(N(Cc1ccccc1)Cc1ccccc1)N(Cc1ccccc1)Cc1ccccc1 reading="> 100 µM"
compound="CCOC(=O)CC1C(O)C(=O)N(C)C1c1ccccc1 (stereo not given)" reading="> 100 µM"
compound=Cc1ccc(NC(=O)/C(Cc2cc(=O)oc3cc(O)ccc23)=N\NC(=O)C[N+](C)(C)C)cc1C reading="> 100 µM"
compound=Cc1nc2sc(C(=O)c3ccc(Cl)cc3)c(N)c2c(-c2ccccc2Cl)c1C(=O)Nc1ccccc1 reading="15.6 µM"
compound=CCOC(=S)SC/C(=N\OC(C)(C)OC)c1ccccc1 reading="32.5 µM"
compound=COc1ccc(/C=C/C(=O)c2sc(NC(=S)NC(=O)c3ccc(Cl)cc3)nc2C)cc1OC reading="35 µM"
compound="CC1Cn2c(nc3ccccc32)NC1=O (stereo not given)" reading="> 100 µM"
compound="CC1(C)C2CC1C(/C=N\\OCC(=O)O)=CC2=O (stereo not given)" reading="> 100 µM"
compound=NS(=O)(=O)c1nn2c(Br)c(-c3ccccc3)nc2s1 reading="2.86 µM"
compound=CSc1nc(Nc2cccc(C(F)(F)F)c2)c2c(N)nn(C)c2n1 reading="> 100 µM"
compound=CC(=O)c1c2n(n(-c3ccccc3)c1=O)C(=O)c1nccnc1-2 reading="> 100 µM"
compound=COc1cc(C=O)c(-c2cc(OC)c(OC)cc2C=O)cc1OC reading="> 100 µM"

---

# Tested on: MOLT-4
# protocol: NCI tumour cell line growth inhibition, 48 h
Calls of active or inactive are those of the source. Cut-off read from the data, not from the text of the source: active = GI50 up to about 1.1 µM and inactive = higher.
Outcomes: active, inactive

molecule=CCOP(=O)(OCC)C(C)(C)OC(=O)NC#N label_value=inactive
molecule=CN(C)CCn1nc(N)c2nc3cc(C(F)(F)F)ccc3nc21 label_value=inactive
molecule="COc1cc(C2c3cc4c(cc3OC(NNS(=O)(=O)c3ccc(C)cc3)C2C)OCO4)cc(OC)c1OC (configuration not stated)" label_value=inactive
molecule=NC(=O)CN(CC(N)=O)C(N)=O label_value=inactive
molecule=COc1cccc(C=O)c1[O-].COc1cccc(C=O)c1[O-].[Zn+2] label_value=inactive
molecule="COc1cc(CNC2c3cc4c(cc3C(c3cc(OC)c(OC)c(OC)c3)[C@H]3C(=O)OCC23)OCO4)cc(OC)c1OC (some centres not stated)" label_value=active
molecule="CC(C)(C)OC(=O)N1CCC2(C)CC(=O)CC=C12 (configuration not stated)" label_value=inactive
molecule=CSc1nc(Nc2cccc(C(F)(F)F)c2)c2c(N)nn(C)c2n1 label_value=inactive
molecule=COC(=O)C1=C2SCc3cccc(c3)CSC3=C(C(=O)OC)SC(=C(S2)S1)S3 label_value=inactive
molecule=Cc1sc2nc(-c3ccc(Cl)c([N+](=O)[O-])c3)c(/C=N/NC(=N)N)n2c1C label_value=inactive
molecule=NC1=NNC(=O)c2nnc3c(C(=O)O)cnn3c2S1 label_value=inactive
molecule="O=C(O[C@H]1[C@@H]2C=CO[C@@H](OC3OC(CO)C(O)C(O)C3O)[C@@H]2[C@@]2(CO)O[C@@H]12)c1ccc(O)c(O)c1 (some centres not stated)" label_value=inactive

---

# System: HL-60
# protocol: NCI tumour cell line growth inhibition, 48 h
Active and inactive are the calls of the source. Cut-off read from the data, not from the text of the source: active = GI50 up to about 1.1 µM and inactive = higher.
Outcomes: active, inactive

compound=C=C=C(Sc1ccccc1)C(C)(C)OC(C)=O experimental_target=HL-60 label_value=inactive
compound=CCOC(=O)N(NC(=O)NC(C)C)c1ccccc1 experimental_target=HL-60 label_value=inactive
compound=Clc1cccc(Cl)c1C(Nc1nncs1)Nc1nncs1 experimental_target=HL-60 label_value=inactive
compound=C#CC[N+](C)(CC#C)CC#C experimental_target=HL-60 label_value=inactive
compound=O=C1O[C@@H](c2ccccc2)C[C@@H]1CN1CCOCC1 experimental_target=HL-60 label_value=inactive
compound=CN(C)c1ccc(/C=C2\C[C@H]3[C@@H]4CCC5=CC(=O)CC[C@]5(C)[C@H]4CC[C@]3(C)C2=O)cc1 experimental_target=HL-60 label_value=inactive
compound=COc1ccc(/C=C/C(=O)c2sc(NC(=S)NC(=O)c3ccc(Cl)cc3)nc2C)cc1OC experimental_target=HL-60 label_value=inactive
compound="CNC(=O)C(NC(=O)[C@H](CC(C)C)NC(=O)[C@@H](S)CCN1C(=O)N(C)C(C)(C)C1=O)C(C)(C)C (stereo partly specified)" experimental_target=HL-60 label_value=inactive
compound=O=c1cc(-c2ccccc2)[nH]c2c(F)ccc(F)c12 experimental_target=HL-60 label_value=inactive
compound="Nc1ccc2c(c1)N(C(=O)c1cc3cc(NC(=O)c4cc5ccccc5o4)ccc3[nH]1)CC2CCl (stereo unspecified)" experimental_target=HL-60 label_value=active
compound="CC1=CCS(=O)(=O)C1C(O)C1=C(C)CCCC1(C)C (stereo unspecified)" experimental_target=HL-60 label_value=inactive
compound="COc1ccc(CC2c3cc4c(cc3CCN2C)OCO4)c(C=O)c1OC (stereo unspecified)" experimental_target=HL-60 label_value=inactive
compound=C/C(CC(=O)CCC(=O)Nc1cccc(C(F)(F)F)c1)=N\NC(=O)NN experimental_target=HL-60 label_value=inactive
compound="CC1CCC2C(C)(C)CC3(C)CCC1C23O (stereo unspecified)" experimental_target=HL-60 label_value=inactive
compound=Cc1c2ccncc2c(C)c2c1[nH]c1ccc(OCCN(C)C)cc12 experimental_target=HL-60 label_value=active
compound=CC1=C(/C(C)=N/NC(=O)c2ccccc2O)C(C)C(/C(C)=N/NC(=O)c2ccccc2O)=C(C)N1 experimental_target=HL-60 label_value=inactive
compound="C1CCN(CCC2CCCCN2)CC1 (stereo unspecified)" experimental_target=HL-60 label_value=inactive
compound=CCCCCCc1cc2cc(C(=O)Nc3ccccc3)c(=N)oc2cc1O experimental_target=HL-60 label_value=inactive
compound=Cc1ccc2c(c1)CN(C(=O)CCC(=O)OCc1ccccc1)c1ccc(C)cc1CN2C(=O)CCC(=O)OCc1ccccc1 experimental_target=HL-60 label_value=inactive
compound=CCOC(=O)c1c(C)nc2c3ccccc3c(C#N)c(C)n12 experimental_target=HL-60 label_value=inactive
compound="C1CSCCSCCCS[C@@H]2CCCCC2SC1 (stereo partly specified)" experimental_target=HL-60 label_value=inactive

---

# System: SF-539
# protocol: NCI tumour cell line growth inhibition, 48 h
Activity calls are given as the source filed them. Cut-off read from the data, not from the text of the source: active = GI50 up to about 1.1 µM and inactive = higher.
Classes used: class 1 for active, class 0 for inactive

compound=O=C(NN1C(=O)C=CC1=O)c1ccccc1Nc1ccccc1C(=O)NN1C(=O)C=CC1=O experimental_target=SF-539 label_value="class 0"
compound="C1CSCCSCCCS[C@@H]2CCCCC2SC1 (stereo not given in full)" experimental_target=SF-539 label_value="class 0"
compound=CSc1nc2ccccc2c(=O)n1/N=C1\C(=O)N(CN2CCCCC2)c2ccc(Cl)cc21 experimental_target=SF-539 label_value="class 0"
compound=COc1ccc(/C=C/C(=O)c2sc(NC(=S)NC(=O)c3ccc(Cl)cc3)nc2C)cc1OC experimental_target=SF-539 label_value="class 0"
compound="COC1(O)c2cccc(Cl)c2C(=O)N1C1(C(N)=O)CCCCC1 (stereo not given)" experimental_target=SF-539 label_value="class 0"
compound="CC(=O)OCC1OC(N2C(c3ccccc3)=CC(c3ccco3)C(C#N)=C2S)C(OC(C)=O)C(OC(C)=O)C1OC(C)=O (stereo not given)" experimental_target=SF-539 label_value="class 0"
compound=Cc1ccc(N/N=C2\C3=C(CCC(C)(C)O3)C(=O)c3ccccc32)cc1 experimental_target=SF-539 label_value="class 0"
compound=O=C1CCCCC/C1=C\c1cccc([N+](=O)[O-])c1 experimental_target=SF-539 label_value="class 0"
compound="CCOC(=O)N1CCC2(CC1)C[C@](C)(C(C)=O)C(C)O2 (stereo not given in full)" experimental_target=SF-539 label_value="class 0"
compound="C=CC(Br)(CBr)CCC(Br)C(C)C (stereo not given)" experimental_target=SF-539 label_value="class 0"
compound=COc1cc2cc3c4c(cc(OC)c(OC)c4c2cc1OC)CCN3C(=O)OCCN1CCNCC1 experimental_target=SF-539 label_value="class 0"
compound="COC(=O)C1(NC(=O)C(CC(=O)OCc2ccccc2)NC(=O)OCc2ccccc2)CCCCCC1 (stereo not given)" experimental_target=SF-539 label_value="class 0"
compound="O=C(O)C(CSC(c1ccccc1)(c1ccccc1)c1ccccc1)/N=C/c1cccs1 (stereo not given)" experimental_target=SF-539 label_value="class 0"
compound=CN(N=O)C(=O)ON1C(=O)CCC1=O experimental_target=SF-539 label_value="class 0"
compound=c1ccc(COc2cccc3ccc[n+](Cc4ccccc4)c23)cc1 experimental_target=SF-539 label_value="class 0"
compound=NC(=O)CN(CC(N)=O)C(N)=O experimental_target=SF-539 label_value="class 0"
compound=CCOC(=O)c1c(C)nc2c3ccccc3c(C#N)c(C)n12 experimental_target=SF-539 label_value="class 0"
compound=Cn1c(=O)nc2n(-c3cccc(Cl)c3)c3ccccc3nc-2c1=O experimental_target=SF-539 label_value="class 0"
compound="CC1SC2=NC3=C(c4ccccc4C3=O)C(c3ccccc3Cl)N2C1=O (stereo not given)" experimental_target=SF-539 label_value="class 0"
compound="Nc1nc(NC2C=C(CO)C(O)C2O)c([N+](=O)[O-])c(=O)[nH]1 (stereo not given)" experimental_target=SF-539 label_value="class 0"
compound="CCCCCC(C)C[C@H]1CO[C@H](c2ccc[nH]2)N[C@H]1C(=O)OC (stereo not given in full)" experimental_target=SF-539 label_value="class 0"
compound=C=C(C)[C@H]1C2=CC(C(=O)OC)=C(C[C@H](C(=C)C)[C@@H](O)[C@@H](O)C3=C[C@H]1OC3=O)O2 experimental_target=SF-539 label_value="class 0"
compound=Cc1nc(C(N)=S)sc1C(=O)/C=C/c1c(O)ccc2ccccc12 experimental_target=SF-539 label_value="class 0"
compound=O=C(O)c1cccc2cccc(-c3cccc4cccc(C(=O)O)c34)c12 experimental_target=SF-539 label_value="class 0"
compound="COc1cc(C2c3cc4c(cc3OC(NNS(=O)(=O)c3ccc(C)cc3)C2C)OCO4)cc(OC)c1OC (stereo not given)" experimental_target=SF-539 label_value="class 1"
compound="CN1CCN(Cc2ccccc2)CC1CC#N (stereo not given)" experimental_target=SF-539 label_value="class 0"
compound=C[Si](C)(c1ccc(C(=O)O)cc1)c1ccc(C(=O)O)cc1 experimental_target=SF-539 label_value="class 0"
compound="CSC1(CC(=O)N2CCCCC2)C(=O)Nc2ccccc21 (stereo not given)" experimental_target=SF-539 label_value="class 0"
compound=CC(C)OP(=O)(OC(C)C)/C(F)=N/Nc1ccc([N+](=O)[O-])cc1 experimental_target=SF-539 label_value="class 0"
compound="CN1C2CCC1CC(CCOC(c1ccc(F)cc1)c1ccc(F)cc1)C2 (stereo not given)" experimental_target=SF-539 label_value="class 0"
compound=CC(=O)CCNc1ccc(-c2cc(-c3ccc(N(C)C)cc3)nc3ccc4ccccc4c23)cc1 experimental_target=SF-539 label_value="class 0"
compound=C1CCCCc2nc3c(nc2CCC1)c1nc2c(nc1c1nc4c(nc31)CCCCCCCC4)CCCCCCCC2 experimental_target=SF-539 label_value="class 0"
compound="N#CC1C[C@@H]2CC3(CCC2CN1C(=O)c1ccccc1)OCCO3 (stereo not given in full)" experimental_target=SF-539 label_value="class 0"
compound=C1=CCN(c2ccccc2)CC1 experimental_target=SF-539 label_value="class 0"
compound="CCOC(=O)C(C[Si](C)(C)C)P(=O)(OCC)OCC (stereo not given)" experimental_target=SF-539 label_value="class 0"
